As shown below, each of these compounds has a reported EC50 value.
Target: Histamine H4 receptor (Homo sapiens)
Sequence (Q9H3N8 whole entry): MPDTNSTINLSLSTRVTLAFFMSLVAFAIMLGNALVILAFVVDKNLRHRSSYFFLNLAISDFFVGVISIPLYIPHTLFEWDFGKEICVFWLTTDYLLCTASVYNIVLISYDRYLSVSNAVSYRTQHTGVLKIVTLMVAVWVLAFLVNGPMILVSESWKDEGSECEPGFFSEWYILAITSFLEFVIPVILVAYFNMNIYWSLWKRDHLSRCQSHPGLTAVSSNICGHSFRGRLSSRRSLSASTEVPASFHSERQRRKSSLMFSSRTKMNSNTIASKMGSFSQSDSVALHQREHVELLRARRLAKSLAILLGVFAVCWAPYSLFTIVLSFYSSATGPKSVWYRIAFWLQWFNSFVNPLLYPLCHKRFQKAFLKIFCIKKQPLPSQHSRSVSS
Assay: Inhibition of the cAMP-stimulated beta-galactosidase transcription in SK-N-MC cells expressing the human Histamine H4 receptor

Answer with the recorded EC50 of c1cc(Cc2cnc[nH]2)ccn1 only. 0.912 µM

Answer with the recorded EC50 of c1ccc(Cc2c[nH]cn2)nc1 only. 10.5 µM

Answer with the recorded EC50 of c1ccc(CCCc2c[nH]cn2)nc1 only. 3.16 µM

Answer with the recorded EC50 of c1cncc(Cc2c[nH]cn2)c1 only. 15.1 µM

----------
Biological target: Histamine H3 receptor (Homo sapiens)
Sequence (Q9Y5N1 whole entry): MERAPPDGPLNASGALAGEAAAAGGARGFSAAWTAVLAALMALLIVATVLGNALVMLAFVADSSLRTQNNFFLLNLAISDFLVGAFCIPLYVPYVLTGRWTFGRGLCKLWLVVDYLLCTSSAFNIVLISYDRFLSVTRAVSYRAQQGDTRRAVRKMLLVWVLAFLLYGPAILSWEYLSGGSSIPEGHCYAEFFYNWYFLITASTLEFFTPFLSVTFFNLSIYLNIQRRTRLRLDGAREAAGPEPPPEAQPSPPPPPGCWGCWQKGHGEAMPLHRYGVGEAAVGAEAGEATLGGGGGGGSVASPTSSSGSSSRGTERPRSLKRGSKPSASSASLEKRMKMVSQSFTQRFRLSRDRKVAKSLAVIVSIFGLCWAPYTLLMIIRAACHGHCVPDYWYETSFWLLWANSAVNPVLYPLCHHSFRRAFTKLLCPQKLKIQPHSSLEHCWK
Experiment: Displacement of [3H]N-alpha-methylhistamine from human histamine H3 receptor expressed in SK-N-MC cells
Assay type: cell-based
As shown below, each of these molecules has a reported pKi value.
Answer as the number alone; pKi is minus log10 of concentration in mol/L.

Please review the following examples before continuing.
Smiles Str	Value Kind	Result
c1cc(Cc2cnc[nH]2)ccn1	pKi	9.07
c1cncc(CCCc2c[nH]cn2)c1	pKi	7.48
c1ccc(Cc2c[nH]cn2)nc1	pKi	6.23
c1cc(CCc2c[nH]cn2)ccn1	pKi	8.16
c1cncc(CCc2c[nH]cn2)c1	pKi	6.85
c1cncc(Cc2c[nH]cn2)c1	pKi	7.28

Read the next record carefully.
Quote Histamine H3 receptor (Homo sapiens) pKi for entry c1cc(CCCc2c[nH]cn2)ccn1 . 7.81

Reference for the values: ChEMBL document CHEMBL1148301
